Procedure Details: Biodistribution in SCID mice bearing AsPC-1 xenografts
Format: in vivo
Assay Setup: male, mouse, spleen, iv, total radioactivity, 24 h pi, Entresto+Lis, read-out: uptake in Spleen
Peptide text beside a SMILES is read from it. * marks the point of attachment. Palmitoyl = CCCCCCCCCCCCCCCC(=O)*; X1 = NCCNCC(CNCCN)C(=O)*
Measure Name: tissue uptake at 24 h (%ID/g)
Just the number please, in %ID/g, no unit attached.

Task: # tissue uptake at 24 h lookup, item CCCCCCCCCCCCCCCC(=O)NCCCC[C@H](NC(=O)C(CNCCN)CNCCN)C(=O)N[C@@H](CCCNC(=N)N)C(=O)N[C@@H](CCCNC(=N)N)C(=O)N1CCC[C@H]1C(=O)N[C@@H](Cc1ccc(O)cc1)C(=O)N[C@H](C(=O)N[C@@H](CC(C)C)C(=O)O)[C@@H](C)CC [[^99mTc]Tc-DT9, metal not drawn] (X1-K(Palmitoyl)RRPYIL-OH)
Result: 4.47
